- Test system: 922993-354-T-J3-PDC complex spheroids, viability, % test/control
- protocol-details: Anticancer human tumor 922993-354-T-J3-PDC patient-derived endometrial carcinoma cell line growth inhibition [CLK]
- measurement-setup: second compound 3.16 µM; first compound 0.1 µM; hits give low values
Please provide measured viability, T/C for the entries that follow.
Numbers only, in %.

compound	outcome-measure	recorded-measurement
CCCS(=O)(=O)Nc1ccc(F)c(C(=O)c2c[nH]c3ncc(-c4ccc(Cl)cc4)cc23)c1F + CNC(=O)c1ccc(Nc2nc(OC3CCCC3)c3c(-c4ccc5nc(C)oc5c4)c[nH]c3n2)c(OC)c1	viability, T/C	31.3

Quick batch: viability, T/C for everything below.
1. C#Cc1c(F)ccc2cc(O)cc(-c3ncc4c(N5CC6CCC(C5)N6)nc(OCC56CCCN5CC(F)C6)nc4c3F)c12 (stereo not given) + CNC(=O)c1ccc(Nc2nc(OC3CCCC3)c3c(-c4ccc5nc(C)oc5c4)c[nH]c3n2)c(OC)c1
2. O=C(c1cc(Cc2n[nH]c(=O)c3ccccc23)ccc1F)N1CCN(C(=O)C2CC2)CC1 + CN1CCN(c2cc(C(=O)Nc3cc4cc(-c5cnn(C)c5)ccc4cn3)ccn2)CC1
3. CCN1CCN(Cc2ccc(Nc3ncc(F)c(-c4cc(F)c5nc(C)n(C(C)C)c5c4)n3)nc2)CC1 + CN1CCN(c2cc(C(=O)Nc3cc4cc(-c5cnn(C)c5)ccc4cn3)ccn2)CC1
4. CCCS(=O)(=O)Nc1ccc(F)c(C(=O)c2c[nH]c3ncc(-c4ccc(Cl)cc4)cc23)c1F + CN1CCN(c2cc(C(=O)Nc3cc4cc(-c5cnn(C)c5)ccc4cn3)ccn2)CC1

29.4
0.63
0.13
0.13

----------
- System: 922993-354-T-J3-PDC complex spheroids, viability, % test/control
- protocol-details: Anticancer human tumor 922993-354-T-J3-PDC cell line growth inhibition [CLK];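 note: spheroids exposed to the agents for 7 days before readout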
- measurement-setup: second compound 0.316 µM; first compound 0.0316 µM; hits give low values
Binary call on viability, T/C with cut-off 30%: strictly below means true (1), and equality or higher means false (0).

compound	assay-system	label
O=C(c1cc(Cc2n[nH]c(=O)c3ccccc23)ccc1F)N1CCN(C(=O)C2CC2)CC1 + CN1CCN(c2cc(C(=O)Nc3cc4cc(-c5cnn(C)c5)ccc4cn3)ccn2)CC1	922993-354-T-J3-PDC complex spheroids, viability, % test/control	false (0)
Nc1ccn(C2OC(CO)C(O)C2(F)F)c(=O)n1 (stereo not given) + CNC(=O)c1ccc(Nc2nc(OC3CCCC3)c3c(-c4ccc5nc(C)oc5c4)c[nH]c3n2)c(OC)c1	922993-354-T-J3-PDC complex spheroids, viability, % test/control	true (1)
CC1(C)CCC(CN2CCN(c3ccc(C(=O)NS(=O)(=O)c4ccc(NCC5CCOCC5)c([N+](=O)[O-])c4)c(Oc4cnc5[nH]ccc5c4)c3)CC2)=C(c2ccc(Cl)cc2)C1 + CNC(=O)c1ccc(Nc2nc(OC3CCCC3)c3c(-c4ccc5nc(C)oc5c4)c[nH]c3n2)c(OC)c1	922993-354-T-J3-PDC complex spheroids, viability, % test/control	false (0)
CC(=O)O[C@H]1C(=O)[C@@]2(C)[C@H]([C@H](OC(=O)c3ccccc3)[C@]3(O)C[C@H](OC(=O)[C@H](O)[C@@H](NC(=O)c4ccccc4)c4ccccc4)C(C)=C1C3(C)C)[C@]1(OC(C)=O)CO[C@@H]1C[C@@H]2O + CN1CCN(c2cc(C(=O)Nc3cc4cc(-c5cnn(C)c5)ccc4cn3)ccn2)CC1	922993-354-T-J3-PDC complex spheroids, viability, % test/control	true (1)

Hello, I'm reviewing records and need to know if viability, T/C of COc1cccc2c1C(=O)c1c(O)c3c(c(O)c1C2=O)CC(O)(C(=O)CO)CC3OC1CC(N)C(O)C(C)O1 (stereo not given) + CNC(=O)c1ccc(Nc2nc(OC3CCCC3)c3c(-c4ccc5nc(C)oc5c4)c[nH]c3n2)c(OC)c1 is below 30%. Could you check?
false (0)

----------
Answer each item with its documented viability, T/C.
- Tested on: 922993-354-T-J3-PDC complex spheroids, viability, % test/control
- protocol-details: Anticancer human tumor 922993-354-T-J3-PDC cell line growth inhibition [CLK];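 note: spheroids exposed to the agents for 7 days before readout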
- measurement-setup: second compound 0.0316 µM; first compound 3.16 µM; hits give low values
One number for each entry, in %.

compound	assay-system	recorded-measurement
C#Cc1c(F)ccc2cc(O)cc(-c3ncc4c(N5CC6CCC(C5)N6)nc(OCC56CCCN5CC(F)C6)nc4c3F)c12 (stereo not drawn) + CN1CCN(c2cc(C(=O)Nc3cc4cc(-c5cnn(C)c5)ccc4cn3)ccn2)CC1	922993-354-T-J3-PDC complex spheroids, viability, % test/control	111
C=CC(=O)N1CCN(c2nc(=O)n(-c3c(C)ccnc3C(C)C)c3nc(-c4c(O)cccc4F)c(F)cc23)C(C)C1 (stereo not drawn) + CN1CCN(c2cc(C(=O)Nc3cc4cc(-c5cnn(C)c5)ccc4cn3)ccn2)CC1	922993-354-T-J3-PDC complex spheroids, viability, % test/control	112
CC(CO)NC(=O)c1cc(-c2ccc(Cl)cc2)nn(-c2cnn(C)c2)c1=O (stereo not drawn) + CN1CCN(c2cc(C(=O)Nc3cc4cc(-c5cnn(C)c5)ccc4cn3)ccn2)CC1	922993-354-T-J3-PDC complex spheroids, viability, % test/control	84.8
CC(Nc1ccc2c(c1)OCCn1cc(N3C(=O)OCC3C(F)F)nc1-2)C(N)=O (stereo not drawn) + CN1CCN(c2cc(C(=O)Nc3cc4cc(-c5cnn(C)c5)ccc4cn3)ccn2)CC1	922993-354-T-J3-PDC complex spheroids, viability, % test/control	48.7
CC1(C)CCC(CN2CCN(c3ccc(C(=O)NS(=O)(=O)c4ccc(NCC5CCOCC5)c([N+](=O)[O-])c4)c(Oc4cnc5[nH]ccc5c4)c3)CC2)=C(c2ccc(Cl)cc2)C1 + CN1CCN(c2cc(C(=O)Nc3cc4cc(-c5cnn(C)c5)ccc4cn3)ccn2)CC1	922993-354-T-J3-PDC complex spheroids, viability, % test/control	112
CCCS(=O)(=O)Nc1ccc(F)c(C(=O)c2c[nH]c3ncc(-c4ccc(Cl)cc4)cc23)c1F + CNC(=O)c1ccc(Nc2nc(OC3CCCC3)c3c(-c4ccc5nc(C)oc5c4)c[nH]c3n2)c(OC)c1	922993-354-T-J3-PDC complex spheroids, viability, % test/control	90.9
COc1cccc2c1C(=O)c1c(O)c3c(c(O)c1C2=O)CC(O)(C(=O)CO)CC3OC1CC(N)C(O)C(C)O1 (stereo not drawn) + CNC(=O)c1ccc(Nc2nc(OC3CCCC3)c3c(-c4ccc5nc(C)oc5c4)c[nH]c3n2)c(OC)c1	922993-354-T-J3-PDC complex spheroids, viability, % test/control	52.3
C=C(F)C(=O)N1CCN(c2nc(OCC3CCCN3C)nc3c2CCN(c2cccc4cccc(Cl)c24)C3)CC1CC#N (stereo not drawn) + CNC(=O)c1ccc(Nc2nc(OC3CCCC3)c3c(-c4ccc5nc(C)oc5c4)c[nH]c3n2)c(OC)c1	922993-354-T-J3-PDC complex spheroids, viability, % test/control	94.8

Each of the following entries comes with a recorded value; kindly state viability, T/C for each.
1. Nc1ccccc1NC(=O)c1ccc(CNC(=O)OCc2cccnc2)cc1 + CN1CCN(c2cc(C(=O)Nc3cc4cc(-c5cnn(C)c5)ccc4cn3)ccn2)CC1
2. COc1ccc([C@@H](O)c2cc(-c3ncnc4cc(N5CCOCC5)ccc34)c(F)cc2Cl)nn1 + CN1CCN(c2cc(C(=O)Nc3cc4cc(-c5cnn(C)c5)ccc4cn3)ccn2)CC1
3. O=c1[nH]cc(F)c(=O)[nH]1 + CN1CCN(c2cc(C(=O)Nc3cc4cc(-c5cnn(C)c5)ccc4cn3)ccn2)CC1
4. CC1COCCN1c1cc(C2(S(C)(=N)=O)CC2)nc(-c2ccnc3[nH]ccc23)n1 (stereo not drawn) + CNC(=O)c1ccc(Nc2nc(OC3CCCC3)c3c(-c4ccc5nc(C)oc5c4)c[nH]c3n2)c(OC)c1
5. COc1ccc([C@@H](O)c2cc(-c3ncnc4cc(N5CCOCC5)ccc34)c(F)cc2Cl)nn1 + CNC(=O)c1ccc(Nc2nc(OC3CCCC3)c3c(-c4ccc5nc(C)oc5c4)c[nH]c3n2)c(OC)c1

62
112
65.6
106
113

----------
- System: 922993-354-T-J3-PDC complex spheroids, viability, % test/control
- protocol-details: Anticancer human tumor 922993-354-T-J3-PDC cell line growth inhibition [CLK];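 note: spheroids exposed to the agents for 7 days before readout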
- measurement-setup: second compound 0.316 µM; first compound 0.316 µM; hits give low values
Give viability, T/C for every item shown.
Answers are plain numbers, in %.

compound	recorded-measurement
CC1COCCN1c1cc(C2(S(C)(=N)=O)CC2)nc(-c2ccnc3[nH]ccc23)n1 (stereo not given) + CNC(=O)c1ccc(Nc2nc(OC3CCCC3)c3c(-c4ccc5nc(C)oc5c4)c[nH]c3n2)c(OC)c1	55
CC(CO)NC(=O)c1cc(-c2ccc(Cl)cc2)nn(-c2cnn(C)c2)c1=O (stereo not given) + CN1CCN(c2cc(C(=O)Nc3cc4cc(-c5cnn(C)c5)ccc4cn3)ccn2)CC1	40
COc1c(OCCCN2CCOCC2)ccc2c3n(c(=NC(=O)c4cnc(N)nc4)nc12)CCN3 + CN1CCN(c2cc(C(=O)Nc3cc4cc(-c5cnn(C)c5)ccc4cn3)ccn2)CC1	6.2
C=CC(=O)N1CCN(c2nc(=O)n(-c3c(C)ccnc3C(C)C)c3nc(-c4c(O)cccc4F)c(F)cc23)C(C)C1 (stereo not given) + CNC(=O)c1ccc(Nc2nc(OC3CCCC3)c3c(-c4ccc5nc(C)oc5c4)c[nH]c3n2)c(OC)c1	64

Lab note: next compound to report on.
Per the records, this compound ( C=C(F)C(=O)N1CCN(c2nc(OCC3CCCN3C)nc3c2CCN(c2cccc4cccc(Cl)c24)C3)CC1CC#N (stereo not given) + CNC(=O)c1ccc(Nc2nc(OC3CCCC3)c3c(-c4ccc5nc(C)oc5c4)c[nH]c3n2)c(OC)c1 ) has viability, T/C equal to 58.1

Numbers sourced from PubChem BioAssay AID2060606.
